Below: a set of entries, each annotated with reported pIC50.
Target: His-tagged recombinant human TrkA (Homo sapiens)
Construct: 6HIS tagged cytoplasmic domain from Invitrogen, Catalog No. PV3144
Sequence (P04629 440-796 limits assumed): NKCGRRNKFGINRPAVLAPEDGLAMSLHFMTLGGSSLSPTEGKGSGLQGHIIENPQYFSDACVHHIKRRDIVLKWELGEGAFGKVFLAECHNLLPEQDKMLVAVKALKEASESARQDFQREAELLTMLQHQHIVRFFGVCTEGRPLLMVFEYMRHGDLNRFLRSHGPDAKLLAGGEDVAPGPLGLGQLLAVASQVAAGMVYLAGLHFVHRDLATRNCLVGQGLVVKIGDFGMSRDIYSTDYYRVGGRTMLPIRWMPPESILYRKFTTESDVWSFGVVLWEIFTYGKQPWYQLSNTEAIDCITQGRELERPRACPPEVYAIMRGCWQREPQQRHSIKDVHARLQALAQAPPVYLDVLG
Test: TrkA LanthaScreen Eu Kinase Binding Assay
Details: averaged IC50; TR-FRET binding assay, 60 min, 22° C.; read-out: TrkA Enzyme IC50
pIC50: −log10 of the molar value. Counter-ions that a name gives are not always drawn.

Compound	Test target	pIC50
COCc1cc2c(NC(=O)Nc3c(C)c(-c4cnn(C)c4)nn3-c3ccccc3)c(Cl)ccc2cn1	His-tagged recombinant human TrkA (Homo sapiens)	6.00 to 7.00
Cc1c(C(N)=O)nn(-c2ccccc2)c1NC(=O)Nc1ccc(Cl)c2ccccc12	His-tagged recombinant human TrkA (Homo sapiens)	> 7.00
O=C(Nc1ccc(Cl)c2ccccc12)Nc1c(Cl)c(OCC2CCNCC2)nn1-c1ccccc1 [Example 11, hydrochloride]	His-tagged recombinant human TrkA (Homo sapiens)	> 7.00
COCc1ccc2c(Cl)ccc(NC(=O)Nc3c(C)c(C4CCN(C)CC4)nn3-c3ccccc3)c2c1 [Example 20, hydrochloride]	His-tagged recombinant human TrkA (Homo sapiens)	> 7.00
Cc1c(-c2cnn(C)c2)nn(-c2ccccc2)c1NC(=O)Nc1cccc2ccccc12	His-tagged recombinant human TrkA (Homo sapiens)	6.00 to 7.00

Query: Would you kindly share the measured pIC50 for COCc1ccc2cccc(NC(=O)Nc3c(C)c(-c4ccc(=O)n(C)c4)nn3-c3ccccc3)c2c1 ?
Result: > 7.00

Query: Would you kindly share the measured pIC50 for Cc1c(C2CCNCC2)nn(-c2ccccc2)c1NC(=O)Nc1ncc(Cl)c2ccccc12 [Example 22, hydrochloride] ?
Result: 5.00 to 6.00

Query: Would you kindly share the measured pIC50 for O=C(Nc1ccc(Cl)c2ccccc12)Nc1c2c(nn1-c1ccccc1)CCC2 ?
Result: > 7.00

Query: Would you kindly share the measured pIC50 for Cc1c(C2CCNCC2)nn(-c2ccccc2)c1NC(=O)Nc1ccc(Cl)c2ccccc12 [Example 12, hydrochloride] ?
Result: > 7.00

Query: Would you kindly share the measured pIC50 for Cc1c(C2CCN(CC(F)(F)F)CC2)nn(-c2ccccc2)c1NC(=O)Nc1ccc(Cl)c2ccccc12 ?
Result: > 7.00

Query: Would you kindly share the measured pIC50 for Cc1c(-c2cnn(C)c2)nn(-c2ccccc2)c1NC(=O)Nc1ncc(Cl)c2ccccc12 ?
Result: 5.00 to 6.00

Query: Would you kindly share the measured pIC50 for COCc1ccc2cccc(NC(=O)Nc3c(C)c(-c4cnn(C)c4)nn3-c3ccccc3)c2c1 ?
Result: > 7.00

Query: Would you kindly share the measured pIC50 for CNC(=O)c1nn(-c2ccccc2)c(NC(=O)Nc2ccc(Cl)c3ccccc23)c1C ?
Result: > 7.00

Query: Would you kindly share the measured pIC50 for COCc1ccc2ccc(Cl)c(NC(=O)Nc3c(C)c(-c4cnn(C)c4)nn3-c3ccccc3)c2c1 ?
Result: > 7.00

Query: Would you kindly share the measured pIC50 for COCc1ccc2c(Cl)ccc(NC(=O)Nc3c(C)c(-c4ccc(=O)n(C)c4)nn3-c3ccccc3)c2c1 ?
Result: > 7.00

Query: Would you kindly share the measured pIC50 for COCc1cc2c(NC(=O)Nc3c(C)c(-c4cnn(C)c4)nn3-c3ccccc3)ccc(Cl)c2cn1 ?
Result: > 7.00

Query: Would you kindly share the measured pIC50 for Cc1c(C2CCN(C)CC2)nn(-c2ccccc2)c1NC(=O)Nc1ccc(Cl)c2ccccc12 [Example 14, hydrochloride] ?
Result: > 7.00

Query: Would you kindly share the measured pIC50 for Cc1c(-c2cnn(C)c2)nn(-c2ccccc2)c1NC(=O)Nc1cncc2ccccc12 ?
Result: 5.00 to 6.00

Query: Would you kindly share the measured pIC50 for Cc1c(-c2ccc(=O)n(C)c2)nn(-c2ccccc2)c1NC(=O)Nc1ccc(Cl)c2ccccc12 ?
Result: > 7.00

Query: Would you kindly share the measured pIC50 for COCc1ccc2c(Cl)ccc(NC(=O)Nc3c(C)c(-c4cnn(C)c4)nn3-c3ccccc3)c2c1 ?
Result: > 7.00

Query: Would you kindly share the measured pIC50 for COCc1cc2c(NC(=O)Nc3c(C)c(-c4cnn(C)c4)nn3-c3ccccc3)cccc2cn1 [Example 3, trifluoroacetate] ?
Result: > 7.00

Query: Would you kindly share the measured pIC50 for Cc1c(-c2ccc(=O)n(C)c2)nn(-c2ccccc2)c1NC(=O)Nc1cncc2ccccc12 ?
Result: 6.00 to 7.00

Query: Would you kindly share the measured pIC50 for COCc1cc2c(NC(=O)Nc3c(C)c(-c4cnn(C)c4)nn3-c3ccccc3)ccc(Br)c2cn1 ?
Result: > 7.00

Query: Would you kindly share the measured pIC50 for COC[C@H](O)COc1nn(-c2ccccc2)c(NC(=O)Nc2ccc(Cl)c3ccccc23)c1C ?
Result: > 7.00

Query: Would you kindly share the measured pIC50 for Cc1c(-c2cnn(C)c2)nn(-c2ccccc2)c1NC(=O)Nc1ccc(Cl)c2ccccc12 ?
Result: > 7.00
